- MEASURED TARGET: chymotrypsin (Bos taurus)
pIC50: −log10 of the molar value.
MEASURED ATTRIBUTE: pIC50

Ask: Which pIC50 is reported with chymotrypsin (Bos taurus) for this entry: CC(=O)Nc1ccc(OP(=O)(Oc2ccc(NC(C)=O)cc2)C(Cc2ccc(N=C(N)N)cc2)NC(=O)OCc2ccccc2)cc1.Cl (stereo not shown) ?
Reply: < 5.00
